In this section, each of the binders is paired with its reported EC50.
measured.on: T1, recombinant human CD134:human Fcγ (IgG1) fusion protein (human, UniProt P01857-1 100-330 = IgG part, limits assumed)
T1 construct: domain: Fcγ (IgG1); Bought (R&D Systems); also called rhuCD134
experimental.details: ELISA, plate-bound CD134:Fc 50 ng/well

These recorded examples may help you get a feel for the data.
[
  {
    "binder": "chimeric human IgG4κ anti-human CD134 antibody clone 12H3 (antibody, V domains shown, Murine V-regions linked to human IgG4 and human kappa constant regions; also called chimeric 12H3 (human IgG4/κ)) VH: EVQLQQSGPELVKPGASVKISCKTSGYTFKDYTMHWVKQSHGKSLEWIGGIYPNNGGSTYNQNFKDKATLTVDKSSSTAYMEFRSLTSEDSAVYYCARMGYHGPHLDFDVWGAGTTVTVSP VL: DIVMTQSHKFMSTSLGDRVSITCKASQDVGAAVAWYQQKPGQSPKLLIYWASTRHTGVPDRFTGGGSGTDFTLTISNVQSEDLTDYFCQQYINYPLTFGGGTKLEIKR",
    "EC50": "~0.1 µg/mL"
  },
  {
    "binder": "humanized IgG4κ anti-human CD134 antibody clone 12H3 version 12H3_VL1VH1 (antibody, V domains shown, Stabilized human IgG4 (Angal et al.)/κ; also called 12H3_VL1H1) VH: QVQLVQSGAEVKKPGSSVKVSCKASGYTFKDYTMHWVRQAPGQGLEWMGGIYPNNGGSTYNQNFKDRVTITADKSTSTAYMELSSLRSEDTAVYYCARMGYHGPHLDFDVWGQGTTVTVSS VL: DIQMTQSPSSLSASVGDRVTITCKASQDVGAAVAWYQQKPGKAPKLLIYWASTRHTGVPSRFSGSGSGTDFTLTISSLQPEDFATYYCQQYINYPLTFGGGTKVEIKR",
    "EC50": "~0.05 µg/mL"
  }
]

Now for another entry.
Req: Provide EC50 value for the following binder: humanized IgG4κ anti-human CD134 antibody clone 20E5 version 20E5_VL1VH1 (antibody, V domains shown, Stabilized human IgG4 (Angal et al.)/κ; also called 20E5_VL1H1; VL1H1) VH: QVQLVQSGAEVKKPGASVKVSCKASGYTFTSYVMHWVRQAPGQRLEWMGYINPYNDGTKYNEKFKGRVTITSDTSASTAYMELSSLRSEDTAVYYCANYYGSSLSMDYWGQGTLVTVSS VL: DIQMTQSPSSLSASVGDRVTITCRASQDISNYLNWYQQKPGKAPKLLIYYTSRLHSGVPSRFSGSGSGTDYTLTISSLQPEDFATYYCQQGNTLPWTFGQGTKVEIKR
Resp: ~0.15 µg/mL
